target: GST tagged PIP4KtypeIIB (Homo sapiens, UniProt P78356)
Sequence (P78356 whole entry): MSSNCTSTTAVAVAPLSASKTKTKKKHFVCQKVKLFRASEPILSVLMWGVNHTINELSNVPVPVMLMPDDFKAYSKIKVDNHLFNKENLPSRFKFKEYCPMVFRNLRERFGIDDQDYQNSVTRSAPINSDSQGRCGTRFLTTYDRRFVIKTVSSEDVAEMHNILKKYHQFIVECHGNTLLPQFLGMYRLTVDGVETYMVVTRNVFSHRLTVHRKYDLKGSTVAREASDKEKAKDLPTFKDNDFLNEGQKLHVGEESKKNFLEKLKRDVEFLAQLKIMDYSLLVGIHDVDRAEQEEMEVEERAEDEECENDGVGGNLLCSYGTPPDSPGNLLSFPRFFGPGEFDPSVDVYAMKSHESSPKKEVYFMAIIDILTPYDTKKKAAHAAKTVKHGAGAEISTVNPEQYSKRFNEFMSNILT
pIC50: −log10 of the molar value.
The compounds listed here are annotated with their pIC50.

Reference set (3 entries):
Which measured pIC50 value corresponds to Nc1ncc(-c2ccnc3oc(C(=O)NCC4CC4)cc23)cc1-c1ccc(N2CCCC2=O)cc1 [Example 89] ?
8.00 to 9.00

# input compound: CC(C)CNC(=O)c1cc2c(-c3cnc(N)c(-c4ccc(C(=O)N(C)C)cn4)c3)ccnc2[nH]1 [Example 131] ; wanted: its pIC50
7.00 to 8.00

Form field: reported pIC50 of CN(C[C@H]1CC[C@H](N)CC1)C(=O)c1ccc(-c2cncc(-c3ccncc3)c2)cc1 [Example 181]
< 5.30

Next:
What value of pIC50 has been recorded for this entry: O=C1CCCN1c1ccc(-c2cncc(-c3cc(C4CC4)nc4nncn34)c2)cc1 [Example 333]
6.00 to 7.00

Record request: pIC50 value, item Cc1cc(N2CCCC2=O)ccc1-c1cncc(-c2cn(C)c3ncc(C(C)(C)O)cc23)c1 [Example 168]
5.30 to 5.60

For the compound shown here, O=C1CCCN1c1ccc(-c2cncc(-c3cnc4nccn4c3)c2)cc1 [Example 275] , give the reported pIC50.
5.30 to 5.60

Which pIC50 is reported for this compound? CN(C)C(=O)c1ccc(-c2cc(-c3ccnc(CNC(=O)CCc4cccc(NC(=O)OC(C)(C)C)c4)c3)cnc2N)nc1 [Example 193]
5.30 to 5.60

Look up pIC50 for this compound: O=C1CCCN1c1ccc(-c2cncc(-c3n[nH]c4ncc(C5CC5)cc34)c2)cc1 [Example 283]
7.00 to 8.00
